tested on: A549/ATCC NSCLC; test: NCI-60 one-dose screen, 48 h; conditions: 10 µM unless noted
Compounds without any hit were thinned out: in the full panel of roughly 83,000, 20% have a hit. Activity calls are given as the source filed them. How the source made its calls: active means growth percent below 10; inactive means the rest.
Parameter call: string, one of Y = active, N = inactive

MOLECULE | LABEL CLASS
CC(=O)N1N=C(c2cccc(Nc3ccncc3)c2)CC1c1ccc2c(c1)OCO2 (stereo unspecified) | N
FC(F)(F)Oc1cccc(-c2cc(NCCCCCCNc3cc(-c4cccc(OC(F)(F)F)c4)nc4ccc(N5CCCC5)cc34)c3cc(N4CCCC4)ccc3n2)c1 | Y
COc1ccccc1OCC(=O)N1CCCCCC1 | N
CCN(CC)CCCCCCNc1cc(OC)cc2cccnc12 | N
S=c1[nH]cccc1-c1nnc2n1Nc1nc3ccc(Cl)cc3cc1CS2 | N
COc1ccc2nc(N=Nc3c(O)ccc4ccccc34)sc2c1 | N
COc1ccc(-c2cnc(N)nc2-c2ccc(OC)cc2O)cc1 | N
CCn1cc(C2NC(=O)c3ccccc3N2)c2cccc(C)c21 (stereo unspecified) | N

Query: recorded result category for C=C1C(=O)O[C@H]2[C@H]1CC/C(COC(=O)/C=C/c1c[nH]c3ccccc13)=C\CC[C@@]1(C)O[C@@H]21 in this test Y

Each molecule tested received a call. Report the one for COc1cc2c(cc1[N+](=O)[O-])-c1ccc([N+](=O)[O-])cc1/C2=N/NC(N)=S . N

What is the recorded call for this molecule in the test? NC(=O)c1cccc(-c2cc(C(N)=O)ccc2Cl)c1 N

Test call for this molecule, please: COc1cccc(CCC(=O)c2cc3c(N)c(C(=O)Nc4cccc(Cl)c4C)sc3nc2C)c1 N

Would you mind telling me which call this test gave O=c1[nH]c2c(s1)CCCC2CN1CCCCC1 (stereo unspecified) ? N
